target: Tyrosine-protein kinase JAK2 (Homo sapiens, UniProt O60674)
pIC50: −log10 of the molar value.

{"columns": ["structure", "pIC50"],
 "data": [
  ["CNC(=O)c1ncc(C#Cc2cc(C(=O)Nc3ccc(CN4CCN(CCO)CC4)c(C(F)(F)F)c3)ccc2C)n1C", 6.27]
]}

###

molecular target: Angiopoietin-1 receptor (Homo sapiens, UniProt Q02763)
Sequence (Q02763 whole entry): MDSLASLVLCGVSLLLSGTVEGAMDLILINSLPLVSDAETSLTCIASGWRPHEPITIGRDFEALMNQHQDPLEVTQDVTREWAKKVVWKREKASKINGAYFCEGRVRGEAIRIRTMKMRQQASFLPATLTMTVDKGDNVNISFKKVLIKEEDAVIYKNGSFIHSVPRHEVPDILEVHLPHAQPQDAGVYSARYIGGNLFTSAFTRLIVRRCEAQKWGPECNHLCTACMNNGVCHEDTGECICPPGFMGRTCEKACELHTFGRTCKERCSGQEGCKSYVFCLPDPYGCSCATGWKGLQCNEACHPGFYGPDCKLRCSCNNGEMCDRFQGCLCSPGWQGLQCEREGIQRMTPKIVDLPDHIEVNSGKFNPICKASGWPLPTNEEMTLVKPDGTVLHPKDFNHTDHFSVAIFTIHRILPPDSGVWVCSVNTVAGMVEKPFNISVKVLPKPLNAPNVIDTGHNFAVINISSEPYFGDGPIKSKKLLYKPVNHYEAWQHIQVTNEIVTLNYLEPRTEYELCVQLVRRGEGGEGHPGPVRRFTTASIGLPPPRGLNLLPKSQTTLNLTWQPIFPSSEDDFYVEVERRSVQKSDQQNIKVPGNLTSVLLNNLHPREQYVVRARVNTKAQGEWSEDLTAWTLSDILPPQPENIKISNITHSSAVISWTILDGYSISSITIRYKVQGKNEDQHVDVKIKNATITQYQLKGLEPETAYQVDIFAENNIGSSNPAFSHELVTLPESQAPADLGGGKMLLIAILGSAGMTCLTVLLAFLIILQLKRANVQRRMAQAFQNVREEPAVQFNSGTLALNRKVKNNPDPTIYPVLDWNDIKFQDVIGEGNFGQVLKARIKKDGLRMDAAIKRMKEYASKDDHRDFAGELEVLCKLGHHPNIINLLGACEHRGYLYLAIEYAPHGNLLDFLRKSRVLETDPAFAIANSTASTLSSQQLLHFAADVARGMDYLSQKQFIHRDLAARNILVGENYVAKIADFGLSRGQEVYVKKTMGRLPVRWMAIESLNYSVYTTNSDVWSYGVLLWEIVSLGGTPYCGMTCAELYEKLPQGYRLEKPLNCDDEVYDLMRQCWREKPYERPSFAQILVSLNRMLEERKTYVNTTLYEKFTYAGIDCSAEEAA
pIC50: −log10 of the molar value.
quantity: pIC50

{"columns": ["structure", "measured"],
 "data": [
  ["CNC(=O)c1ncc(C#Cc2cc(C(=O)Nc3ccc(CN4CCN(CCO)CC4)c(C(F)(F)F)c3)ccc2C)n1C", 8.66]
]}

###

Listed below: AUC values for each entry.
system: Rattus norvegicus; assay: AUC in rat at 15 mg/kg, po; type: ADME, organism-based, Plasma; design: dose 15 mg/kg, route oral; conditions: in vivo
quantity: AUC

{"columns": ["structure", "quantity", "measured"],
 "data": [
  ["CNC(=O)c1ncc(C#Cc2cc(C(=O)Nc3ccc(CN4CCN(CCO)CC4)c(C(F)(F)F)c3)ccc2C)n1C", "AUC", "6586 h/ng/mL"],
  ["Cc1ccc(C(=O)Nc2ccc(CN3CCN(C)CC3)c(C(F)(F)F)c2)cc1C#Cc1cncnc1", "AUC", "13559 h/ng/mL"],
  ["Cc1ccc(C(=O)Nc2ccc(CN3CCN(CCO)CC3)c(C(F)(F)F)c2)cc1C#Cc1cnc(C(N)=O)n1C", "AUC", "962 h/ng/mL"],
  ["Cc1ccc(C(=O)Nc2ccc(CN3CCN(C)CC3)c(C(F)(F)F)c2)cc1C#Cc1cnc(C(N)=O)n1C", "AUC", "4144 h/ng/mL"]
]}

###

target: Vascular endothelial growth factor receptor 1 (Homo sapiens)
Sequence (P17948 whole entry): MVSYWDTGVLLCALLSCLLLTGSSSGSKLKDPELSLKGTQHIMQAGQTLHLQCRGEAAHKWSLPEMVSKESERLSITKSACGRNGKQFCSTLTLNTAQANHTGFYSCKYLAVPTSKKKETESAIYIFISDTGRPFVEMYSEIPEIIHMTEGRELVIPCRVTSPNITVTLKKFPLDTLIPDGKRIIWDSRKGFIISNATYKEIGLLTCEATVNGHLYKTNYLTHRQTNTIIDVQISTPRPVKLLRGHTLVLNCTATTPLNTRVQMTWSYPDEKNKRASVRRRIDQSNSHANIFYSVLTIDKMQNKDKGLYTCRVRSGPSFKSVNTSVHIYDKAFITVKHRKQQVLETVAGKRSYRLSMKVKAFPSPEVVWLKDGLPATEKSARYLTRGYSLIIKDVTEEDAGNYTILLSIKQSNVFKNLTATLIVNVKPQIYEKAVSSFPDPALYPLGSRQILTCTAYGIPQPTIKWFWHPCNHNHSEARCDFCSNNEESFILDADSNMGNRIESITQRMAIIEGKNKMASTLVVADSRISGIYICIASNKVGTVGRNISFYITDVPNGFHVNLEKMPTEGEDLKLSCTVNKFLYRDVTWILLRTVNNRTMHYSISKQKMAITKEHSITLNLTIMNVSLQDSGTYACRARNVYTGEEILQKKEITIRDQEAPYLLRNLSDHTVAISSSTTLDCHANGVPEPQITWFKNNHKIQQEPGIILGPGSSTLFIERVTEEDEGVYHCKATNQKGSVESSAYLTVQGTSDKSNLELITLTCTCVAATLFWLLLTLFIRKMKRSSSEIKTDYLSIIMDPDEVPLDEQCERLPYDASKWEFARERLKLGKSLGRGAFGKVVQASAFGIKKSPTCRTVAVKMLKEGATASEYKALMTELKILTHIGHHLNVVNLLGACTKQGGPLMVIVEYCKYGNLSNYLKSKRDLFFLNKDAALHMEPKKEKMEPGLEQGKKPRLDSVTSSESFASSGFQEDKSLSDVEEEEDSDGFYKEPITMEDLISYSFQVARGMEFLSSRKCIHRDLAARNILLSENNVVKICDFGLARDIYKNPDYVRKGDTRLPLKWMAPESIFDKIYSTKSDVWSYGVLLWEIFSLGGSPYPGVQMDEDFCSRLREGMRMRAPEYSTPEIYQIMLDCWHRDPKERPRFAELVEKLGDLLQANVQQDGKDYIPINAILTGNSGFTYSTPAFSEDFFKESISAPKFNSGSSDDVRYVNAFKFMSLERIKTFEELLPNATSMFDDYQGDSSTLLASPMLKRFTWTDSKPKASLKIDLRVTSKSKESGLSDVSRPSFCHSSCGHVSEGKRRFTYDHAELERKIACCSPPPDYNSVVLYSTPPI
pIC50: −log10 of the molar value.

{"columns": ["structure", "pIC50"],
 "data": [
  ["CNC(=O)c1ncc(C#Cc2cc(C(=O)Nc3ccc(CN4CCN(CCO)CC4)c(C(F)(F)F)c3)ccc2C)n1C", 8.28]
]}

###

Listed below: clearance values for each entry.
assay: Clearance in rat at 5 mg/kg, iv; assay type: ADME, organism-based; parameters: dose 5 mg/kg, route intravenous; settings: in vivo

{"columns": ["structure", "clearance [mL/min/kg]"],
 "data": [
  ["Cc1ccc(C(=O)Nc2ccc(CN3CCN(CCO)CC3)c(C(F)(F)F)c2)cc1C#Cc1cnc(C(N)=O)n1C", 35.8],
  ["Cc1ccc(C(=O)Nc2ccc(CN3CCN(C)CC3)c(C(F)(F)F)c2)cc1C#Cc1cncnc1", 15.7],
  ["CNC(=O)c1ncc(C#Cc2cc(C(=O)Nc3ccc(CN4CCN(CCO)CC4)c(C(F)(F)F)c3)ccc2C)n1C", 17.2],
  ["Cc1ccc(C(=O)Nc2ccc(CN3CCN(C)CC3)c(C(F)(F)F)c2)cc1C#Cc1cnc(C(N)=O)n1C", 15.3]
]}

###

Biological target: Tyrosine-protein kinase JAK3 (Homo sapiens)
Sequence (P52333 whole entry): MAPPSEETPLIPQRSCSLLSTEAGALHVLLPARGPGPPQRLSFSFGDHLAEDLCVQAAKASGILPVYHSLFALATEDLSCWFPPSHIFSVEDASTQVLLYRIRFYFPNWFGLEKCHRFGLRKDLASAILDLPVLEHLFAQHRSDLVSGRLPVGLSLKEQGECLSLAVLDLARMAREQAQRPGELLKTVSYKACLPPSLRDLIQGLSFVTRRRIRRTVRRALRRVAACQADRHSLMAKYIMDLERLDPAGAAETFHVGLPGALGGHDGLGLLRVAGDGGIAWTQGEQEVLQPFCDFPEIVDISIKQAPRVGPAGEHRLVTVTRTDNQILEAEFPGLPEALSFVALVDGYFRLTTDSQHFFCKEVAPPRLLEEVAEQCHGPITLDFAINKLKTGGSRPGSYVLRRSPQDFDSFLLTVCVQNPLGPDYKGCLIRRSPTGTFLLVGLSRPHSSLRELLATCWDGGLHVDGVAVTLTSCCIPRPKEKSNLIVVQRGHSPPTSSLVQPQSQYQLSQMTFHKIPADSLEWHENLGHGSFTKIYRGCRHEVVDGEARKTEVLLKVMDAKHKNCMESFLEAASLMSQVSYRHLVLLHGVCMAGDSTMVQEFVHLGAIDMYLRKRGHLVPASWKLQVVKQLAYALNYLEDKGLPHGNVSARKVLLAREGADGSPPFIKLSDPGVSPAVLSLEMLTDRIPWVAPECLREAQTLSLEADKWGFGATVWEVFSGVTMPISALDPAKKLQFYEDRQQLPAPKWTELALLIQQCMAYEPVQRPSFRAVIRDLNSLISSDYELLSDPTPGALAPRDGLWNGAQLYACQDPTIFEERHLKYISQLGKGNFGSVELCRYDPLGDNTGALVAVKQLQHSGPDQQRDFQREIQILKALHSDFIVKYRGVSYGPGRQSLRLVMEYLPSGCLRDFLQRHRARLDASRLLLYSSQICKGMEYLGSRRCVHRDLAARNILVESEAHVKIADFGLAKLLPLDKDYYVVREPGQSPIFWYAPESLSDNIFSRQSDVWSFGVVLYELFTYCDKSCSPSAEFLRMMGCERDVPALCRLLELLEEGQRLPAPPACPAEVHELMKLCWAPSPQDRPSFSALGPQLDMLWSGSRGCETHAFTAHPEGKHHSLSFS
pIC50: −log10 of the molar value.

{"columns": ["structure", "target-or-test-system", "pIC50"],
 "data": [
  ["CNC(=O)c1ncc(C#Cc2cc(C(=O)Nc3ccc(CN4CCN(CCO)CC4)c(C(F)(F)F)c3)ccc2C)n1C", "Tyrosine-protein kinase JAK3 (Homo sapiens)", 7.24]
]}

###

target: UniProt Q15375
Sequence (Q15375 whole entry): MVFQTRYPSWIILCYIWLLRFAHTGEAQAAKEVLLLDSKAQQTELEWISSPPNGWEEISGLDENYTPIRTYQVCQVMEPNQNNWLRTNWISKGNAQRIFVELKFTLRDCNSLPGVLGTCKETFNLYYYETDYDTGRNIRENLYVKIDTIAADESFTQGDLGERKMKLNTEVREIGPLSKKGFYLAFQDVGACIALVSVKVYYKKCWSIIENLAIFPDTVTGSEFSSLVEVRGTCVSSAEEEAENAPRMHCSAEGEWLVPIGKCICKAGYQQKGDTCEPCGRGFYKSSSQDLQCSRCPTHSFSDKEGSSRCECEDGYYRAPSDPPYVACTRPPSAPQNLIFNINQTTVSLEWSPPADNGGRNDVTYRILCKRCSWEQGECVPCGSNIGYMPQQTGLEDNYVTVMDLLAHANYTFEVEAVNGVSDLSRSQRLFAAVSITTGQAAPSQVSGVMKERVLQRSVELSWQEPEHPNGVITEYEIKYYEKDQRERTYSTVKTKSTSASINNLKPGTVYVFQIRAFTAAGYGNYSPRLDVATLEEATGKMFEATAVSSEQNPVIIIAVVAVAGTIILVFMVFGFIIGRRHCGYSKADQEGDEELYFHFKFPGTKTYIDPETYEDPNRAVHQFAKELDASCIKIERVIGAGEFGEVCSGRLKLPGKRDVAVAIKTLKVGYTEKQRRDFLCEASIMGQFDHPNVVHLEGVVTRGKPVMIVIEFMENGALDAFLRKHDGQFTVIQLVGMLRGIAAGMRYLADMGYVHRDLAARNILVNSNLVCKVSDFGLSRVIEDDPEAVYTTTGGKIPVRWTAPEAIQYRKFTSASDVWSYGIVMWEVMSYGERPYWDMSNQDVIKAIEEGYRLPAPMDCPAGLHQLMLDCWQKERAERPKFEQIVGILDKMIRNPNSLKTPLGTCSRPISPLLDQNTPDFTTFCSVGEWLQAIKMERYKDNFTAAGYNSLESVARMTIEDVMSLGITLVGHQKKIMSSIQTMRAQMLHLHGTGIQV
pIC50: −log10 of the molar value.

{"columns": ["structure", "pIC50"],
 "data": [
  ["CNC(=O)c1ncc(C#Cc2cc(C(=O)Nc3ccc(CN4CCN(CCO)CC4)c(C(F)(F)F)c3)ccc2C)n1C", 8.38]
]}

###

target: UniProtKB P08581
Sequence (P08581 whole entry): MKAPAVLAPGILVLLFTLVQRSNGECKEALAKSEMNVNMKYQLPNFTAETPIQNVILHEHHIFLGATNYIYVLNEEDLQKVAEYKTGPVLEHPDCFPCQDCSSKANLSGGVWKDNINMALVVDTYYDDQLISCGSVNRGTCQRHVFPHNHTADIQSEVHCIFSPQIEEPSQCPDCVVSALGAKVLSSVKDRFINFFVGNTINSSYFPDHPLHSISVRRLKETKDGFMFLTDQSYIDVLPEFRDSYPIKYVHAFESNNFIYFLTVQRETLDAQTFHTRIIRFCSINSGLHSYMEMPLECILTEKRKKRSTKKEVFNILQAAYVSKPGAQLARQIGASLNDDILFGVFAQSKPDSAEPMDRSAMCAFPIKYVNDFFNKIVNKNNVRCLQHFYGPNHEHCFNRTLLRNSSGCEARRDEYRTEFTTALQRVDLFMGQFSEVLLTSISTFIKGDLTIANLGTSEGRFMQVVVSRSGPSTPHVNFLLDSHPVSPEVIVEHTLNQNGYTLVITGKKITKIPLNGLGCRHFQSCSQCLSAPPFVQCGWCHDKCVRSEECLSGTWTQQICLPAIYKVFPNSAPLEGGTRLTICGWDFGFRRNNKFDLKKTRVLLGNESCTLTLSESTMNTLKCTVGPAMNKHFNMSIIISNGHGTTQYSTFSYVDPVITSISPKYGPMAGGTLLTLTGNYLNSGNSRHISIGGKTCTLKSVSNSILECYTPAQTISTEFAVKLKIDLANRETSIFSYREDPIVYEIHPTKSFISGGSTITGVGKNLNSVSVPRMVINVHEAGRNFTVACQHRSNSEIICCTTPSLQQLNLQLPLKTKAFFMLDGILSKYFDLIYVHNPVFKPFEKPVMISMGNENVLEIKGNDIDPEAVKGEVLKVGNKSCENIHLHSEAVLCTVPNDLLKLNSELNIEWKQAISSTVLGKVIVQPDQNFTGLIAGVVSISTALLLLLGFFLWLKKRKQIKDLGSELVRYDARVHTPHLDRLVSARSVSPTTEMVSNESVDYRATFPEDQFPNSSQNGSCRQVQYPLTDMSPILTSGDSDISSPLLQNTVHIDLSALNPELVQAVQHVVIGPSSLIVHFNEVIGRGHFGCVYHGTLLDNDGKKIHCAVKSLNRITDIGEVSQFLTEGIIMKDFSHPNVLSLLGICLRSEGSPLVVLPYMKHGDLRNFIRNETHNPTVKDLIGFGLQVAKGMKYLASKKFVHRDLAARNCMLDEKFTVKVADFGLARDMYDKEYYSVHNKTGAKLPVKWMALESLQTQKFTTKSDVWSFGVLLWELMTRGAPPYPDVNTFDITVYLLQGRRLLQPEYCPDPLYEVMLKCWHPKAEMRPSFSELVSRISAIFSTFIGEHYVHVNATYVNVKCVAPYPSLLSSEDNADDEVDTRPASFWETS
pIC50: −log10 of the molar value.
quantity: pIC50

{"columns": ["structure", "measured"],
 "data": [
  ["CNC(=O)c1ncc(C#Cc2cc(C(=O)Nc3ccc(CN4CCN(CCO)CC4)c(C(F)(F)F)c3)ccc2C)n1C", "< 5.52"]
]}

###

Listed below: half-life values for each entry.
assay: Half life in rat at 15 mg/kg, po; assay type: ADME, organism-based; set-up: dose 15 mg/kg, route oral; details: in vivo

{"columns": ["structure", "half-life, h"],
 "data": [
  ["Cc1ccc(C(=O)Nc2ccc(CN3CCN(C)CC3)c(C(F)(F)F)c2)cc1C#Cc1cncnc1", 10],
  ["Cc1ccc(C(=O)Nc2ccc(CN3CCN(CCO)CC3)c(C(F)(F)F)c2)cc1C#Cc1cnc(C(N)=O)n1C", 6.3],
  ["CNC(=O)c1ncc(C#Cc2cc(C(=O)Nc3ccc(CN4CCN(CCO)CC4)c(C(F)(F)F)c3)ccc2C)n1C", 10],
  ["Cc1ccc(C(=O)Nc2ccc(CN3CCN(C)CC3)c(C(F)(F)F)c2)cc1C#Cc1cnc(C(N)=O)n1C", 8]
]}

###

biological target: Mast/stem cell growth factor receptor Kit (Homo sapiens); assay: Inhibition of human c-Kit using poly[Glu:Tyr] by Hotspot assay
pIC50: −log10 of the molar value.

{"columns": ["structure", "pIC50"],
 "data": [
  ["CNC(=O)c1ncc(C#Cc2cc(C(=O)Nc3ccc(CN4CCN(CCO)CC4)c(C(F)(F)F)c3)ccc2C)n1C", "< 5.52"]
]}

###

target: Serine/threonine-protein kinase B-raf (Homo sapiens, UniProt P15056, V600E); assay: Inhibition of human BRAF V599E mutant using MEK1 (K97R), ATP substrate by Hotspot assay
pIC50: −log10 of the molar value.
quantity: pIC50

{"columns": ["structure", "measured"],
 "data": [
  ["CNC(=O)c1ncc(C#Cc2cc(C(=O)Nc3ccc(CN4CCN(CCO)CC4)c(C(F)(F)F)c3)ccc2C)n1C", 7.59]
]}

###

experiment: cells; settings: Mus musculus, BaF3
Description: Antiproliferative activity against mouse BA/F3 cells expressing wild type BCR-ABL
Just a reminder that ties go to not satisfied: only IC50 strictly below 3 nM counts as satisfied.

{"columns": ["structure", "label-value"],
 "data": [
  ["Cc1ccc(C(=O)Nc2ccc(CN3CCN(C)CC3)c(C(F)(F)F)c2)cc1C#Cc1cncnc1", "not satisfied"],
  ["Cc1ccc(C(=O)Nc2ccc(CN3CCN(C)CC3)c(C(F)(F)F)c2)cc1C#Cc1cnc[nH]1", "not satisfied"],
  ["CNC(=O)c1ncc(C#Cc2cc(C(=O)Nc3ccc(CN4CCN(C)CC4)c(C(F)(F)F)c3)ccc2C)n1C", "satisfied"],
  ["Cc1ccc(C(=O)Nc2ccc(CN3CCN(C)CC3)c(C(F)(F)F)c2)cc1C#Cc1cnc(N)s1", "satisfied"],
  ["Cc1ccc(C(=O)Nc2ccc(CN3CCN(C)CC3)c(C(F)(F)F)c2)cc1C#Cc1cnc(C(=O)NCCO)n1C", "not satisfied"],
  ["Cc1ccc(C(=O)Nc2ccc(CN3CCN(C)CC3)c(C(F)(F)F)c2)cc1C#Cc1ccc(C(N)=O)nc1", "satisfied"],
  ["COCCN1CCN(Cc2ccc(NC(=O)c3ccc(C)c(C#Cc4cnc(C(N)=O)n4C)c3)cc2C(F)(F)F)CC1", "satisfied"],
  ["Cc1ccc(C(=O)Nc2ccc(CN3CCN(C)CC3)c(C(F)(F)F)c2)cc1C#Cc1cnc(C(N)=O)n1C", "satisfied"]
]}

// provenance: ChEMBL document CHEMBL1781971
